Target: GII.4 Houston 2002 (ABY27560.1) VLPs (UniProt P54635 1-539)
Test: VLP blockade
OUTCOME_MEASURE: EC50 (µg/mL)
// units = µg/mL; emit number, no label

Examples with answers:
[[record]]
binder = "NORO-315B (antibody, V domains shown) VH: QVQLVESGGGLVKPGGSLRLSCVASGFTFSDYYMTWFRQTPGRGLEWLSYISAIGGYTEYADSVKSRFIISRDNGKKSLYLQMNSLRAEDSGVYYCAREDCHGTSCYSGDWGQGTLVTVSS VL: QSVLTQPPSVSGAPGQRVTISCTGSSSNIGAGYDVHWYQQLPGTAPKLLIYHNTNRPSGVPDRFSGSKSGTSAYLTITGLQAEDEADYYCQSYDRSLSKSRVFSGGTKLTVL"
outcome_measure = "EC50"
measured = 2.2

[[record]]
binder = "NORO-273A (antibody, V domains shown) VH: QVQLVQSGAEVKKPGASVKISCKASGYDFTSFPMHWVRLGPGQRLEWMGWISAANGNTKYSQKFQDRFTITRDTSASIVHMELSSLRSEDTAVYYCARGGYSSGLYRYSNYYYGMTVWGQGTLVTVSS VL: DIVMTQTPLSLSVTPGQPASISCKSSESLLHNDRKTYLFWYLQKPGQPPQLLIFQVSNRFSGVPDRFSGSGSGTDFTLRISRVEAEDVGIYYCLQTTQLPLTFGGGTKVEIK"
outcome_measure = "EC50"
measured = 5.2


// below: EC50 requested for another binder
Lookup: Sample NORO-250B (antibody, V domains shown) VH: QVQLVESGGGLVKPGGSLTLSCAASGFTFSDYYMNWIRQAPGKRLEWVSYISGIMSSTNYADSVKGRFTISRDTAKKSVYLQMNSLRAEDTAVYYCARATSQGATSYYFDSWGQGTLVTVSS VL: QSVLTQPPSVSGAPGQRVTISCTGSSSNIGADYDVHWYQQLPGAAPRLLIYADINRPSGVPDRFSGSKSGTSASLAITGLQAEDEADYYCQSYDRSVSGSAVFGGGTKVTVL — what was its EC50?
Found: 17.9
